Item-by-item account of GI50
Test system: UACC-62 melanoma
test.name: NCI tumour cell line growth inhibition, 48 h

Use these answered entries as a reference point.
In [3]: df
Out[3]:
                                   compound  assay_value
0  CCOC(=O)C1=C(c2ccccc2)N(Cc2ccccc2)C2(O)C=CC(=O)C3C(=O)N(c4ccccc4)C(=O)C132 (centres undefined)      1.63 µM
1  C=CC[PH+](c1ccccc1)c1ccccc1.C=CC[PH+](c1ccccc1)c1ccccc1.[Cl][Pt][Cl]      5.88 µM

# GI50 (compound: `Cn1cc(-c2nn3cc(-c4cccs4)nc3s2)c2cc(F)ccc21` ) is 1.93 µM

# GI50 (compound: `COc1ncnc2c(-c3ccco3)cn(COCc3ccccc3)c12` ) is 8.2 µM

---

Tested on: SW-620 colon
test.name: NCI tumour cell line growth inhibition, 48 h
Item-by-item account of TGI

Use these answered entries as a reference point.
>>> print(df.to_string())
                                   molecule  assay_value
0  O=C(CCCN1CCc2[nH]c3cc(F)ccc3c2C1)c1ccc(F)cc1     > 100 µM
1  COc1cc2c(cc1OC)C1Cc3ccccc3CN1CCC2 (stereo not given)     > 100 µM
2  Cc1[nH]c(=O)nc(N/N=C/c2ccc(O)cc2)c1C(=O)Nc1ccc(Cl)cc1     > 100 µM
3      CN(C)c1ccc(Sc2ccc3nc(N)nc(N)c3c2)cc1       2.1 µM
4  O=C(O)CNC(=O)c1cccc2c(=O)c3ccccc3[nH]c12     > 100 µM

Next molecule, TGI to be filled in.
Fill in: SW-620 colon TGI for `COc1cc(/C=C2\C[C@H]3[C@@H]4CC=C5C[C@@H](N6CCCC6)CC[C@]5(C)[C@H]4CC[C@]3(C)[C@H]2OC(C)=O)cc(OC)c1OC` = 34.7 µM

---

Item-by-item account of GI50
Test system: A549 NSCLC
test.name: NCI tumour cell line growth inhibition, 48 h
Where a SMILES comes first, the peptide text is derived from it. The star is where a group is joined. Palmitoyl = CCCCCCCCCCCCCCCC(=O)*

Use these answered entries as a reference point.
molecule	GI50
CCCCCCCCCCCCCCCC(=O)NC(CCCCN)C(=O)NCC(=O)NC(Cc1ccccc1)C(=O)N1CCCC1C(=O)NC(CO)C(=O)NC(Cc1ccc(O)cc1)C(=O)NC(CCCCN)C(=O)NC(CC(C)C)C(=O)NC(CCCN=C(N)N)C(=O)N1CCCC1C(=O)NCC(N)=O (stereo not drawn) (Palmitoyl-KGFPSYKLRPG-NH2; configuration not given here)	19.5 µM
CCN(CC)CCOc1ccc(C2=C(c3ccccc3)CCc3cc(OC)ccc32)cc1	4.02 µM

# GI50 (molecule: `COC(=O)Nc1nc2ccc(Sc3ccc(NC(=O)Nc4cc(C(F)(F)F)ccc4F)cc3)cc2[nH]1` ) is 3.01 µM

---

Test system: SK-MEL-5 melanoma
test.name: NCI tumour cell line growth inhibition, 48 h; in the data active = GI50 below about 0.43 µM; inactive = the rest
Pick one and only one: active, inactive

Worked cases, answers included:
compound	tested.on	label
N#Cc1ccc(N2Cc3cc(Cl)ccc3OC3=C2C(=O)N(Cc2ccccc2)C3=O)cc1	SK-MEL-5 melanoma	inactive
CC1(C)CC2(C)OC2C2(C1)N=NC(=Nc1ccccc1)O2 (configuration not stated)	SK-MEL-5 melanoma	inactive
Cn1c(COC(=O)NCCN2CCOCC2)nc2c(N3CCOCC3)nc(-c3ccccc3)nc21	SK-MEL-5 melanoma	inactive

Recorded call for `CC[C@@]1(OC(=O)CN(C)C)C(=O)OCc2c1cc1n(c2=O)Cc2cc3ccccc3nc2-1` ?
active

Recorded call for CC1SC2(CCCCC2)N(NC(=O)c2[nH]c3ccc(F)cc3c2-c2ccccc2)C1=O (configuration not stated) ?
inactive

---

Test system: COLO 205 colon
test.name: NCI tumour cell line growth inhibition, 48 h
metric: GI50

molecule	GI50
COC(=O)C1=C(O)C(C(=O)OC)[C@@]2(O)[C@@H](C(=O)OC)C(c3ccc(OC(=O)C(CC(C)C)NC(C)=O)cc3)C[C@@H]1[C@@H]2C(=O)OC (some centres undefined)	46.6 µM
CC1(C)CC2(C)OC2C2(C1)N=NC(=Nc1ccccc1)O2 (centres undefined)	10.9 µM
Cc1csc(Nc2nc(-c3cccc(Cl)c3)nc(C(Cl)(Cl)Cl)n2)n1	1.04 µM
Cc1cc2c(cc1Cl)SC1=NN(C)C(c3ccccc3O)N1S2(=O)=O (centres undefined)	> 100 µM
CCCCCCCCCCCCNC(=O)[C@H]1CSC(c2ccc(OC)c(F)c2)N1 (some centres undefined)	1.94 µM

# GI50 (molecule: `C#Cc1cccc(Nc2ncnc3ccc(-c4cncc(NS(C)(=O)=O)c4)cc23)c1` ) is 1.68 µM

# GI50 (molecule: `CC[C@@]1(O)C(=O)OCc2c1cc1n(c2=O)Cc2cc3c(NC(C)=O)c(O)ccc3nc2-1` ) is 17.6 µM

# GI50 (molecule: `CCCCCCN1C(=O)CN=C1Nc1ccc2cc3ccc(NC4=NCC(=O)N4CCCCCC)cc3nc2c1` ) is 1.88 µM

# GI50 (molecule: `O=c1[nH]c2cc(O)ccc2n2cc3c(F)cccc3c12` ) is 7.3 µM

---

Test system: IGROV1 ovarian
test.name: NCI tumour cell line growth inhibition, 48 h
Item-by-item account of GI50

                                   molecule       tested_on  metric  assay_value
0  COc1ccc(N(Cc2cc(OC)c(OC)c(OC)c2)C2OC(=O)c3ccccc32)cc1 (centres undefined)  IGROV1 ovarian    GI50      1.07 µM
1  CCOC(=O)Cc1csc(NC(=O)C(OC(=O)c2ccc(N)cc2)c2ccccc2)n1 (centres undefined)  IGROV1 ovarian    GI50      52.8 µM
2  CCCCCCN1C(=O)CN=C1Nc1ccc2cc3ccc(NC4=NCC(=O)N4CCCCCC)cc3nc2c1  IGROV1 ovarian    GI50      1.85 µM
3  C=C(CC1(CC(=C)c2ccc(C(=O)O)cc2)C(=O)N(C)C(=O)N(C)C1=O)c1ccc(C(=O)O)cc1  IGROV1 ovarian    GI50      47.4 µM
4   O=c1[nH]c(-c2ccccn2)nc2sc3c(c12)CCCCCC3  IGROV1 ovarian    GI50      3.98 µM
5  CCNC(=O)Oc1ccc(/C(=C(\C)c2ccc(Cl)cc2)c2ccc(OCCN3CCCCC3)cc2)cc1  IGROV1 ovarian    GI50      4.13 µM
6  N#Cc1ccc(N2Cc3cc(Cl)ccc3OC3=C2C(=O)N(Cc2ccccc2)C3=O)cc1  IGROV1 ovarian    GI50      2.19 µM
7  COC(=O)Nc1nc2ccc(Sc3ccc(NC(=O)Nc4cc(C(F)(F)F)ccc4F)cc3)cc2[nH]1  IGROV1 ovarian    GI50      3.52 µM

Next molecule, GI50 to be filled in.
# GI50 (molecule: `COc1ccc(S(=O)(=O)NCCNc2nccc(-c3c(-c4ccccc4)nc4sccn34)n2)cc1` ) is 2.13 µM

---

Item-by-item account of GI50
Test system: T-47D breast
test.name: NCI tumour cell line growth inhibition, 48 h

Use these answered entries as a reference point.
molecule	GI50
C[C@]12CC[C@@H]3c4ccc(O)cc4CC[C@H]3[C@@H]1CC[C@@H]2NS(=O)(=O)c1ccc(-c2ccccc2)cc1	3.47 µM
C=C(CC1(CC(=C)c2ccc(C(=O)O)cc2)C(=O)N(C)C(=O)N(C)C1=O)c1ccc(C(=O)O)cc1	25.2 µM
CC1(C)CC2(C)OC2C2(C1)N=NC(=Nc1ccccc1)O2 (stereo unspecified)	2.83 µM
O=[N+]([O-])c1cccc(-c2ncc(-c3ccc(Cl)cc3Cl)[nH]2)c1	6.88 µM
Cc1ccc(OCCCCCCNCCO)c(C)c1	11.7 µM

Fill in: T-47D breast GI50 for `C=CC[PH+](c1ccccc1)c1ccccc1.C=CC[PH+](c1ccccc1)c1ccccc1.[Cl][Pt][Cl]` = 4.59 µM

Fill in: T-47D breast GI50 for `COc1cc(C(=O)N/N=C/c2cccc([N+](=O)[O-])c2)cc(OC)c1OC` = 35.6 µM

Fill in: T-47D breast GI50 for COc1ccc(-n2nc(C)c3c2N(C)C2(C)C[C@@H]4C3(C)[C@@H]3CC4(C2)N(C)c2c(c(C)nn2-c2ccc(OC)cc2)[C@H]3C)cc1 (stereo partly specified) = 2.44 µM

Fill in: T-47D breast GI50 for CC1SC2(CCCCC2)N(NC(=O)c2[nH]c3ccc(F)cc3c2-c2ccccc2)C1=O (stereo unspecified) = > 100 µM

Fill in: T-47D breast GI50 for `C#Cc1ccc(-n2c(/C=C/c3cc(OC)c(OC)c(OC)c3)nc3ncccc3c2=O)cc1` = 5.85 µM

Fill in: T-47D breast GI50 for O=[N+]([O-])O.[NH-]C1CCCCC1[NH-].[NH-]C1CCCCC1[NH-].[NH-]C1CCCCC1[NH-].[OH-].[OH-].[OH-].[Pt+4].[Pt+4].[Pt+4] (stereo unspecified) = 1.08 µM

Data origin, for the record: PubChem BioAssay (NCI)
